Test system: PC-3 [JPC-3]
assayName: relative viability (nuclei count vs DMSO), 5 days (fraction); higher = more cells survive
conditionLabel: first compound 0.03162 µM
Exercise: for every item that follows, state its recorded relative viability.
One number for each entry.

| molecule | relative viability |
| --- | --- |
| CCN(CC)CCCCNc1ncc2cc(-c3cc(OC)cc(OC)c3)c(NC(=O)NC(C)(C)C)nc2n1 + NC(=O)Nc1cc(-c2cccc(F)c2)sc1C(=O)N[C@H]1CCCNC1 [AZD7762] (partner 0.2 µM) | 0.822 |

molecule O=c1cc(N2CCOCC2)oc2c(-c3cccc4c3sc3ccccc34)cccc12 + CC(=O)Nc1cccc(-n2c(=O)n(C3CC3)c(=O)c3c(Nc4ccc(I)cc4F)n(C)c(=O)c(C)c32)c1 [Trametinib] (partner 0.02 µM) , relative viability observed: 0.675

====

Test system: NCI-H647
assayName: relative viability (nuclei count vs DMSO), 5 days (fraction); higher = more cells survive
conditionLabel: first compound 0.6325 µM
Exercise: for every item that follows, state its recorded relative viability.
Answers are plain numbers.

Field: example entries. Status: answers known.
| compound | relative viability |
| --- | --- |
| COCC1(CO)C(=O)C2CCN1CC2 (stereo not drawn) [PRIMA-1MET] + COc1cc2c(Oc3ccc(NC(=O)C4(C(=O)Nc5ccc(F)cc5)CC4)cc3F)ccnc2cc1OCCCN1CCOCC1 [Foretinib] (partner 0.25 µM) | 0.973 |
| COCC1(CO)C(=O)C2CCN1CC2 (stereo not drawn) [PRIMA-1MET] + NC(=O)Nc1cc(-c2cccc(F)c2)sc1C(=O)N[C@H]1CCCNC1 [AZD7762] (partner 0.2 µM) | 0.434 |

Continue with the next compound.
compound COCC1(CO)C(=O)C2CCN1CC2 (stereo not drawn) [PRIMA-1MET] + CC(=O)c1c(C)c2cnc(Nc3ccc(N4CCNCC4)cn3)nc2n(C2CCCC2)c1=O [Palbociclib] (partner 0.5 µM) , relative viability observed: 0.387

====

Exercise: for every item that follows, state its recorded relative viability.
Tested on: LK-2
assayName: relative viability (nuclei count vs DMSO), 5 days (fraction); higher = more cells survive
conditionLabel: first compound 0.03162 µM
Answers are plain numbers.

| compound | relative viability |
| --- | --- |
| CCN(CC)CCCCNc1ncc2cc(-c3cc(OC)cc(OC)c3)c(NC(=O)NC(C)(C)C)nc2n1 + C[C@@H](Oc1cc(-c2cnn(C3CCNCC3)c2)cnc1N)c1c(Cl)ccc(F)c1Cl [Crizotinib] (partner 1 µM) | 0.25 |

Items follow; give relative viability for each.
1. O=c1cc(N2CCOCC2)oc2c(-c3cccc4c3sc3ccccc34)cccc12 + CC1(C)CCC(c2ccc(Cl)cc2)=C(CN2CCN(c3ccc(C(=O)NS(=O)(=O)c4ccc(N[C@H](CCN5CCOCC5)CSc5ccccc5)c(S(=O)(=O)C(F)(F)F)c4)cc3)CC2)C1 [Navitoclax] (partner 0.5 µM)
2. CCN(CC)CCCCNc1ncc2cc(-c3cc(OC)cc(OC)c3)c(NC(=O)NC(C)(C)C)nc2n1 + CS(=O)(=O)CCNCc1ccc(-c2ccc3ncnc(Nc4ccc(OCc5cccc(F)c5)c(Cl)c4)c3c2)o1 [Lapatinib] (partner 2 µM)
3. CCN(CC)CCCCNc1ncc2cc(-c3cc(OC)cc(OC)c3)c(NC(=O)NC(C)(C)C)nc2n1 + O=C(CCCCCCC(=O)Nc1ccccc1)NO [Vorinostat] (partner 1 µM)

1: 0.886; 2: 0.814; 3: 0.213
